Assay: Intrinsic clearance in human liver microsomes
Format: in vitro ADME
Settings: pH 7.4; human liver microsomes
Procedure: Mean values for each species were calculated from 3 replicates. Intrinsic Clearance in Rat and Human Liver Microsomes […] Predicted hepatic clearance (CLhep) was calculated using the following equation: […] Prepared samples were injected (10 µL each) onto an AB Sciex Triple Quad 4500 mass spectrometer system with an Agilent 1260 Infinity II pump and autosampler. […] Quantitation of compounds was performed via AB Sciex Multiquant software using the raw analyte:IS peak area ratios. […]
Recorded CLint scaled at 40 min, 1 µM, one value per entry.

molecule: Cc1cc(Oc2cnn(C)c2)cc(C(=O)Nc2nc(C)cs2)n1 [22iB]
CLint scaled at 40 min, 1 µM / mL/min/kg: 46
//
molecule: Cc1cccc(NC(=O)c2cc(Oc3cnn(C)c3)cc(C)n2)n1 [22iC]
CLint scaled at 40 min, 1 µM / mL/min/kg: 77
//
molecule: Cc1cc(Oc2cnn(C)c2C(F)(F)F)cc(C(=O)Nc2nc(C)cs2)n1 [22gB]
CLint scaled at 40 min, 1 µM / mL/min/kg: 70
//
molecule: Cc1cc(Oc2cnn(C)c2C(F)(F)F)cc(C(=O)Nc2ccc(F)cn2)n1 [22gA]
CLint scaled at 40 min, 1 µM / mL/min/kg: 11

* * *

assay: Intrinsic clearance in human liver microsomes; type: in vitro ADME; conditions: predicted hepatic clearance based on microsomal CLint
// label = True if CLhep, human is not less than 1 L/h/kg, otherwise False

compound: Cc1cc(Oc2cnn(C)c2C(F)(F)F)cc(C(=O)Nc2ccc(F)cn2)n1 [22gA]
assigned category: False
--
compound: Cc1cccc(NC(=O)c2cc(Oc3ccnn3C)cc(C)n2)n1 [22hC]
assigned category: True
--
compound: Cc1cc(Oc2cnn(C)c2)cc(C(=O)Nc2nc(C)cs2)n1 [22iB]
assigned category: False
--
compound: Cc1cc(Oc2ccnn2C)cc(C(=O)Nc2nc(C)cs2)n1 [22hB]
assigned category: True
--
compound: Cc1cc(Oc2cnn(C)c2C(F)(F)F)cc(C(=O)Nc2nc(C)cs2)n1 [22gB]
assigned category: False
--
compound: Cc1cc(Oc2cnn(C)c2)cc(C(=O)Nc2ccc(F)cn2)n1 [22iA]
assigned category: False
--
compound: Cc1cccc(NC(=O)c2cc(Oc3cnn(C)c3C(F)(F)F)cc(C)n2)n1 [22gC]
assigned category: False
--
compound: Cc1cccc(NC(=O)c2cc(Oc3cc(C)nn3C)cc(C)n2)n1 [22fC]
assigned category: False

* * *

Molecular target: human mGlu3 (Homo sapiens, UniProt Q14832)
Sequence (Q14832 23-879): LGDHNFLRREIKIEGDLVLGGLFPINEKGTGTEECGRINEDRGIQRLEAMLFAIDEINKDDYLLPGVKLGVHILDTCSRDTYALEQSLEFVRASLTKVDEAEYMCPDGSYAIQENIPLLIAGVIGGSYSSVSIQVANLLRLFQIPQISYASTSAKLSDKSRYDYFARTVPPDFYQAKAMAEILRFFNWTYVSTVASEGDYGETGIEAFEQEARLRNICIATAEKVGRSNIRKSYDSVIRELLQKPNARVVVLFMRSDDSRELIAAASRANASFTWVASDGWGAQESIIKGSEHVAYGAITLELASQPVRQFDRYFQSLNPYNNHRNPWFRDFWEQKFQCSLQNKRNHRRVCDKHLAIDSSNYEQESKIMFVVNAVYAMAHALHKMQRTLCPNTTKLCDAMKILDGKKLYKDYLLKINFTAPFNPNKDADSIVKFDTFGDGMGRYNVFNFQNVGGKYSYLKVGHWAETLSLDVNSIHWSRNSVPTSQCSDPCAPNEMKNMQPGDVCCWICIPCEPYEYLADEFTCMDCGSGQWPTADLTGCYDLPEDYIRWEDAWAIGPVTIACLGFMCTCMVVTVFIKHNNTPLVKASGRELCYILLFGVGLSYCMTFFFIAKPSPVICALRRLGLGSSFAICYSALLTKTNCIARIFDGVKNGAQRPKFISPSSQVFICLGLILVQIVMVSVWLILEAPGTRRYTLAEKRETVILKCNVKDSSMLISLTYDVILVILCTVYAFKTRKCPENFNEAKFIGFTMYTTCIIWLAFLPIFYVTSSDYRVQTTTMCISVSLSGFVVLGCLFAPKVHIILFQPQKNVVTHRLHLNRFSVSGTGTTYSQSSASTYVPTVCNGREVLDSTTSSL
Test: mGlu selectivity, thallium flux GIRK assay
Procedure: the presence of 5% CO2, the dye solutions were removed and replaced with assay buffer using a microplate washer, leaving 20 μL of assay buffer in the cell plate. […] Briefly, after establishment of a fluorescence baseline for 2 seconds (excitation, 480 nm; emission, 530 nm), 20 µL of test compound was added to the cells and the response was measured for 140 seconds. […]
pIC50: −log10 of the molar value.
measured quantity: pIC50

compound: Cc1cc(Oc2cnn(C)c2)cc(C(=O)Nc2ccc(F)cn2)n1 [22iA]
measured quantity: pIC50
meas value: < 5.00

* * *

assay: Intrinsic clearance in rat liver microsomes; type: in vitro ADME; settings: pH 7.4; rat liver microsomes
measured quantity: CLint scaled at 40 min, 1 µM (mL/min/kg)

compound: Cc1cc(Oc2cnn(C)c2C(F)(F)F)cc(C(=O)Nc2ccc(F)cn2)n1 [22gA]
measured quantity: CLint scaled at 40 min, 1 µM
unit label: mL/min/kg
meas value: 82
--
compound: Cc1cc(Oc2ccnn2C)cc(C(=O)Nc2nc(C)cs2)n1 [22hB]
measured quantity: CLint scaled at 40 min, 1 µM
unit label: mL/min/kg
meas value: 45
--
compound: Cc1cccc(NC(=O)c2cc(Oc3cc(C)nn3C)cc(C)n2)n1 [22fC]
measured quantity: CLint scaled at 40 min, 1 µM
unit label: mL/min/kg
meas value: 436
--
compound: Cc1cc(Oc2cnn(C)c2)cc(C(=O)Nc2nc(C)cs2)n1 [22iB]
measured quantity: CLint scaled at 40 min, 1 µM
unit label: mL/min/kg
meas value: 44
--
compound: Cc1cc(Oc2cnn(C)c2C(F)(F)F)cc(C(=O)Nc2nc(C)cs2)n1 [22gB]
measured quantity: CLint scaled at 40 min, 1 µM
unit label: mL/min/kg
meas value: 817

* * *

assay: Intrinsic clearance in rat liver microsomes; format: in vitro ADME; details: pH 7.4; rat liver microsomes

molecule: Cc1cccc(NC(=O)c2cc(Oc3cnn(C)c3C(F)(F)F)cc(C)n2)n1 [22gC]
CLint scaled at 40 min, 1 µM / mL/min/kg: 600

molecule: Cc1cccc(NC(=O)c2cc(Oc3cnn(C)c3)cc(C)n2)n1 [22iC]
CLint scaled at 40 min, 1 µM / mL/min/kg: 234

molecule: Cc1cc(Oc2cnn(C)c2)cc(C(=O)Nc2ccc(F)cn2)n1 [22iA]
CLint scaled at 40 min, 1 µM / mL/min/kg: 48

molecule: Cc1cccc(NC(=O)c2cc(Oc3ccnn3C)cc(C)n2)n1 [22hC]
CLint scaled at 40 min, 1 µM / mL/min/kg: 320

* * *

biological target: CYP 3A4 (Homo sapiens, UniProt P08684); construct: from tissue; host or cells: pooled human liver microsomes (per the earlier reading); experiment: P450 inhibition in pooled human liver microsomes; format: in vitro ADME; conditions: pooled HLM, NADPH, CYP-specific probe substrates; listed as VU6043653
Sequence (P08684 whole entry): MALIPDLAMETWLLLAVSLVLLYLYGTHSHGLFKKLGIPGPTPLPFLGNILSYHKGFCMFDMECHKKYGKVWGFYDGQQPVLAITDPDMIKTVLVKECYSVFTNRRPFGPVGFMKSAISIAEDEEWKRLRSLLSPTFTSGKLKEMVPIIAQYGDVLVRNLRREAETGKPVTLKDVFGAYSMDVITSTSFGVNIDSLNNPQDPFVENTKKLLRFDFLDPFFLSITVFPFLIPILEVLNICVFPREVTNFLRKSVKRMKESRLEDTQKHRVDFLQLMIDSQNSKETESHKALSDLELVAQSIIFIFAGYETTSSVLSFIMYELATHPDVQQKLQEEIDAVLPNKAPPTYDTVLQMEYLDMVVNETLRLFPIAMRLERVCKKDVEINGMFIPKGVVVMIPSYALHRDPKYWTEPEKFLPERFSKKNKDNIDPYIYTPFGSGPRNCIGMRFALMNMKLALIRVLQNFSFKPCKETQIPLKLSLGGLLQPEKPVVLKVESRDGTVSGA

molecule: Cc1cc(Oc2cnn(C)c2)cc(C(=O)Nc2ccc(F)cn2)n1 [22iA]
IC50: ≥ 30 µM

* * *

biological target: CYP 1A2 (Homo sapiens); construct: from tissue; host or cells: pooled human liver microsomes (per the earlier reading); experiment: P450 inhibition in pooled human liver microsomes; type: in vitro ADME; conditions: pooled HLM, NADPH, CYP-specific probe substrates; listed as VU6043653
Sequence (P05177 whole entry): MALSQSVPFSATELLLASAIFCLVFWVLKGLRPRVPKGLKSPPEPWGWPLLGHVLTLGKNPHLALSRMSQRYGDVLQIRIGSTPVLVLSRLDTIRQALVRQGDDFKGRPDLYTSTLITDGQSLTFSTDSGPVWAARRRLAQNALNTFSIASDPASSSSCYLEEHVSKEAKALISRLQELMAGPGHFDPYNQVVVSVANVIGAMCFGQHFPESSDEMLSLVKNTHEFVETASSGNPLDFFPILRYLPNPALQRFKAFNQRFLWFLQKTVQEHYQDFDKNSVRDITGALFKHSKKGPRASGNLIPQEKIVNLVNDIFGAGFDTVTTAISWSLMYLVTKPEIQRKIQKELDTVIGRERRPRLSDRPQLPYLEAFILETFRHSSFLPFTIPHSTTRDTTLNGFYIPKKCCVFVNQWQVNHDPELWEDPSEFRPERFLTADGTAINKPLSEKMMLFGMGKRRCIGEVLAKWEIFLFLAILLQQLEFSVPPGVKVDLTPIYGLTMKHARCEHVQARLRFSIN
pIC50: −log10 of the molar value.
measured quantity: pIC50

compound: Cc1cc(Oc2cnn(C)c2)cc(C(=O)Nc2ccc(F)cn2)n1 [22iA]
meas value: ≤ 4.52

* * *

target: human mGlu5 (Homo sapiens, UniProt P41594); construct: expressed in transfected cells; assay: Calcium mobilization assay in human mGlu5-HEK293A cells (NAM, EC80 glutamate); format: cell-based; settings: read-out: hmGlu5 IC50
Sequence (P41594 21-1212): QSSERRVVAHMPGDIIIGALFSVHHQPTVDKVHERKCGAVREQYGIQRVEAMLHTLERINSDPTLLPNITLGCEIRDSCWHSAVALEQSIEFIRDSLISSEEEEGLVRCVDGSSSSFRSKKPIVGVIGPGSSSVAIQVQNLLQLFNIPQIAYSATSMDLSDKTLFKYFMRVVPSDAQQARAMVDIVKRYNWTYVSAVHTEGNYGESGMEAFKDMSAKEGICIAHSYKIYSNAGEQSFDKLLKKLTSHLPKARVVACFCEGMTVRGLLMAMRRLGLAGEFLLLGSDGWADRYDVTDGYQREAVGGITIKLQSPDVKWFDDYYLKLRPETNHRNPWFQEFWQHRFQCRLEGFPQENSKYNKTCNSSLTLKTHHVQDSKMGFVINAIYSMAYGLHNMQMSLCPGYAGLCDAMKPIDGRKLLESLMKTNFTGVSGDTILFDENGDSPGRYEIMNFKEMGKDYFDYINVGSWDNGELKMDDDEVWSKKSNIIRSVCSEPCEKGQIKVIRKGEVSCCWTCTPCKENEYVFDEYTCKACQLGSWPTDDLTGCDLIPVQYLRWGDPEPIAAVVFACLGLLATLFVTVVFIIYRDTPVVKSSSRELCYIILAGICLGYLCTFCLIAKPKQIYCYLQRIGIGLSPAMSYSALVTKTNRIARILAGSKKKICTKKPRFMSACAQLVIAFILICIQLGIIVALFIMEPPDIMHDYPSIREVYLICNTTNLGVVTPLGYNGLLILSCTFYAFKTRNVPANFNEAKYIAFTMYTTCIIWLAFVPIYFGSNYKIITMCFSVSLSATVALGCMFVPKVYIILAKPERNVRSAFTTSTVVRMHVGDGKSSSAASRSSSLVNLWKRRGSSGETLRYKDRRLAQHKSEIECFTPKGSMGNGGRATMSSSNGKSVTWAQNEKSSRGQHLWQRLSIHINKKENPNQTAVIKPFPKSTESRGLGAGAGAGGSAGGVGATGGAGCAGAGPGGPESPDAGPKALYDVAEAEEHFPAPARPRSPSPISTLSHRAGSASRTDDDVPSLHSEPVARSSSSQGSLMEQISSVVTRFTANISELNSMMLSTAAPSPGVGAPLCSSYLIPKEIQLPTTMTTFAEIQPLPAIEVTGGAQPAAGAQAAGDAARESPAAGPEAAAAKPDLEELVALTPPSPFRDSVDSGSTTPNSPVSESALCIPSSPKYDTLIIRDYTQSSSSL
measured quantity: IC50 (nM)

compound: Cc1csc(NC(=O)c2cc(Oc3cnn(C)c3)c(C(F)(F)F)cn2)n1 [24B]
test target: human mGlu5 (Homo sapiens, UniProt P41594)
measured quantity: IC50
meas value: 2800
//
compound: Cc1cccc(NC(=O)c2cc(Oc3c(C)nn(C)c3C)cc(C)n2)n1 [22aC]
test target: human mGlu5 (Homo sapiens, UniProt P41594)
measured quantity: IC50
meas value: 2800
//
compound: Cc1cccc(NC(=O)c2cc(Oc3cnn(C)c3)c(C(F)(F)F)cn2)n1 [24C]
test target: human mGlu5 (Homo sapiens, UniProt P41594)
measured quantity: IC50
meas value: 1300
